# ASSAY_NAME: qHTS assay to identify aromatase inhibitors - cell viability counter screen (AID 743084);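 also: cells stimulated with testosterone during compound exposure; nearly all actives have a fitted effect of over 55% in size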
# EXPERIMENTAL_SETUP: MCF-7 aro ERE viability, CellTiter-Fluor, 24 h; series mostly up to 70.3 µM
Records with an inconclusive call do not appear. Calls of active or inactive are those of the source. Calls follow the shape of the dose curve; as a rule, active = well fitted cell-killing curve with a large enough effect in the repeat runs; inconclusive = weak or mixed curves, or effect the other way; inactive = no such curve, though single readings can be large or run the other way.
Choose the fitting class; nothing outside active, inactive is accepted.

1. CC(=O)[C@]1(O)Cc2c(O)c3c(c(O)c2[C@@H](O[C@H]2C[C@H](N)[C@H](O)[C@H](C)O2)C1)C(=O)c1ccccc1C3=O	active

-- ask Per the assay record, what outcome was assigned to O=C(CCCN1CCN2CCCC2C1)c1ccc(F)cc1 (centres undefined) ?
-- reply inactive

-- ask // same read-out, input: Cc1ccc(C(C)(C)c2ccc(C)cc2)cc1
-- reply inactive

-- ask // same read-out, input: O=C1CCC(c2ccc(-n3ccnc3)cc2)=NN1
-- reply inactive

-- ask // same read-out, input: CN1CCN(CCCN2c3ccccc3Sc3ccc(C(F)(F)F)cc32)CC1
-- reply active

-- ask // same read-out, input: CCCCCCCCCCCCCCCCCCNC(=O)OC1CCN(C(=O)OC[C@H](COC(=O)N(Cc2cccc[n+]2CC)C(=O)c2ccccc2OC)OC)CC1
-- reply active

-- ask // same read-out, input: OCl
-- reply inactive

-- ask // same read-out, input: CCOC(=O)COc1ccc2c(=O)cc(-c3ccccc3)oc2c1
-- reply inactive

-- ask // same read-out, input: CC(=O)O[C@H]1C[C@@H]2CC[C@@H]3[C@H](CC[C@@]4(C)[C@H]3C[C@H]([N+]3(C)CCCCC3)[C@@H]4OC(C)=O)[C@@]2(C)C[C@@H]1[N+]1(C)CCCCC1
-- reply inactive
